Biological target: Fuc(a1-2)[Gal(a1-3)]Gal(b1-3)GlcNAc(b1-2)Man(a1-3)[Fuc(a1-2)[Gal(a1-3)]Gal(b1-3)GlcNAc(b1-2)Man(a1-6)]Man(b1-4)GlcNAc(b1-4)GlcNAc
Assay: glycan array binding signal (z-score within array); higher = stronger binding
Settings: glycan notation: IUPAC condensed, linker removed
The sample as a whole holds a higher share of the strongest signals than the screen did.
TEST_READOUT: glycan array binding signal (z-score)
Enter the number alone.

Given the binder Gal 12 (Homo sapiens), Q96DT0 (protein) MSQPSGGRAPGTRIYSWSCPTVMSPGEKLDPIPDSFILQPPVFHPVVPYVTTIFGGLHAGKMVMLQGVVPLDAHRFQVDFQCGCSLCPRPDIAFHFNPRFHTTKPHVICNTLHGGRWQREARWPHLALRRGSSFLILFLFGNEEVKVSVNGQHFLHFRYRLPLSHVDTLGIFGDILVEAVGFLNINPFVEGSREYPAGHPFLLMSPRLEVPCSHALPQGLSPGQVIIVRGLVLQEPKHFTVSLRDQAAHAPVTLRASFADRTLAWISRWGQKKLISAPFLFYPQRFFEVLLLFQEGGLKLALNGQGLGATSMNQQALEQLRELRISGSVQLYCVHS , what is its reported glycan array binding signal (z-score)?
-0.674
